Entry source: patent US20120108501A1

AUCall values for the compounds below.
- procedure_summary: Pharmacokinetics of PEGylated protease inhibitor prodrugs in rats
- Assay type: in vivo, male Sprague-Dawley rats
- Design: concentration or dose not given beside the values
- condition_label: prodrug in plasma, mean ± SD

{"compound": "COCCOCCOCCOC(=O)NC(C(=O)NC(Cc1ccccc1)C(CN(Cc1ccc(-c2ccccn2)cc1)NC(=O)C(NC(=O)OC)C(C)(C)C)OC(=O)C(N)CC(C)C)C(C)(C)C.Cl [mono-mPEG3-Atazanavir-L-Leucine, mPEG3-Atazanavir-L-Leucine]", "AUCall (ng·h/mL)": 1930}
{"compound": "COCCOCCOCCOC(=O)NC(C(=O)NC(Cc1ccccc1)C(CN(Cc1ccc(-c2ccccn2)cc1)NC(=O)C(NC(=O)OC)C(C)(C)C)OC(=O)COCCOC(=O)C(Cc1ccccc1)NC(=O)C(N)Cc1ccccc1)C(C)(C)C.Cl (centres unmarked) [mPEG3-atazanavir-CME-phe-phenylalanine, mPEG3-Atazanavir-CME-PhePhenylalanine]", "AUCall (ng·h/mL)": 0.919}
{"compound": "COCCOCCOCCOCCOCCOCCOC(=O)NC(C(=O)NC(Cc1ccccc1)C(CN(Cc1ccc(-c2ccccn2)cc1)NC(=O)C(NC(=O)OC)C(C)(C)C)OC(=O)C(N)CC(C)C)C(C)(C)C.Cl [mPEG6-Atazanavir-L-Leucine]", "AUCall (ng·h/mL)": 107}
{"compound": "COCCOCCOCCOCCOCCOC(=O)NC(C(=O)NC(Cc1ccccc1)C(CN(Cc1ccc(-c2ccccn2)cc1)NC(=O)C(NC(=O)OC)C(C)(C)C)OCOC)C(C)(C)C (centres unmarked) [mPEG5-Atazanavir-methyl methyl ether, mPEG5-Atazanavir Methyl Methyl Ether]", "AUCall (ng·h/mL)": 3530}
{"compound": "COCCOCCOCCOCCOCCOC(=O)NC(C(=O)NC(Cc1ccccc1)C(CN(Cc1ccc(-c2ccccn2)cc1)NC(=O)C(NC(=O)OC)C(C)(C)C)OC(=O)COCCOC(=O)C(N)CC(C)C)C(C)(C)C.Cl (centres unmarked) [mPEG5-Atazanavir-CME-Leucine HCl, mPEG5-Atazanavir-CME-Leucine]", "AUCall (ng·h/mL)": 0.119}
{"compound": "CCOC(=O)O[C@@H](CN(Cc1ccc(-c2ccccn2)cc1)NC(=O)[C@@H](NC(=O)OC)C(C)(C)C)[C@H](Cc1ccccc1)NC(=O)[C@@H](NC(=O)OCCOCCOCCOCCOCCOC)C(C)(C)C.Cl [mPEG5-Atazanavir - Ethyl Carbonate HCl, mPEG5-Atazanavir Ethyl Carbonate]", "AUCall (ng·h/mL)": 2250}
{"compound": "CCOC(C)OC(CN(Cc1ccc(-c2ccccn2)cc1)NC(=O)C(NC(=O)OC)C(C)(C)C)C(Cc1ccccc1)NC(=O)C(NC(=O)OCCOCCOCCOCCOCCOC)C(C)(C)C (mixture of isomers) [1-ethoxyethoxy-mPEG5-Atazanivir, ethoxy ethoxy mPEG5-atazanavir]", "AUCall (ng·h/mL)": 4960}
{"compound": "COCCOCCOCCOCCOCCOCCOC(=O)NC(C(=O)NC(Cc1ccccc1)C(CN(Cc1ccc(-c2ccccn2)cc1)NC(=O)C(NC(=O)OC)C(C)(C)C)OC(=O)COCCOC(=O)C(N)Cc1ccccc1)C(C)(C)C.Cl (centres unmarked) [mPEG6-Atazanavir-CME-phenylalanine HCl]", "AUCall (ng·h/mL)": 6.41}
{"compound": "COCCOCCOCCOCCOCCOCCOC(=O)NC(C(=O)NC(Cc1ccccc1)C(CN(Cc1ccc(-c2ccccn2)cc1)NC(=O)C(NC(=O)OC)C(C)(C)C)OC(=O)COCCOC(=O)C(N)CC(C)C)C(C)(C)C.Cl (centres unmarked) [mPEG6-Atazanavir-CME-Leucine HCl, mPEG6-Atazanavir-CME-Leucine]", "AUCall (ng·h/mL)": 2.56}
{"compound": "COCCOCCOCCOCCOCCOC(=O)NC(C(=O)NC(Cc1ccccc1)C(CN(Cc1ccc(-c2ccccn2)cc1)NC(=O)C(NC(=O)OC)C(C)(C)C)OC(=O)COCCOC(=O)C(Cc1ccccc1)NC(=O)C(N)Cc1ccccc1)C(C)(C)C.Cl (stereo not drawn) [CME Phe-Phe-mPEG5-Atazanavir HCl, mPEG5-atazanavir-ethoxy-CME-Phe-Phe]", "AUCall (ng·h/mL)": 1.22}
{"compound": "COCCOCCOCCOCCOCCOCCOC(=O)NC(C(=O)NC(Cc1ccccc1)C(CN(Cc1ccc(-c2ccccn2)cc1)NC(=O)C(NC(=O)OC)C(C)(C)C)OCOC)C(C)(C)C (centres unmarked) [mPEG6-Atazanavir-methyl methyl ether, mPEG6-Atazanavir Methyl Methyl Ether]", "AUCall (ng·h/mL)": 1140}
{"compound": "COCCOCCOCCOC(=O)NC(C(=O)NC(Cc1ccccc1)C(CN(Cc1ccc(-c2ccccn2)cc1)NC(=O)C(NC(=O)OC)C(C)(C)C)OC(=O)COCCOC(=O)C(N)CC(C)C)C(C)(C)C.Cl (centres unmarked) [mPEG3-Atazanavir-CME-Leucine HCl, mPEG3-Atazanavir-CME-Leucine]", "AUCall (ng·h/mL)": 13.1}
{"compound": "CCOC(C)OC(CN(Cc1ccc(-c2ccccn2)cc1)NC(=O)C(NC(=O)OC)C(C)(C)C)C(Cc1ccccc1)NC(=O)C(NC(=O)OCCOCCOCCOCCOCCOCCOC)C(C)(C)C (mixture of isomers) [1-ethoxyethoxy-mPEG6-Atazanivir, ethoxy ethoxy mPEG6-atazanavir]", "AUCall (ng·h/mL)": 2200}
{"compound": "COCCOCCOCCOC(=O)NC(C(=O)NC(Cc1ccccc1)C(CN(Cc1ccc(-c2ccccn2)cc1)NC(=O)C(NC(=O)OC)C(C)(C)C)OC(=O)CNC(=O)C(N)CC(C)C)C(C)(C)C.Cl (stereo not drawn) [Leu-Gly-mPEG3-Atazanavir, Leu-Gly-mPEG3-Atazanavir Hydrochloride]", "AUCall (ng·h/mL)": 0.955}
